Kindly supply the reported IC50 values for the records listed here.
SUBJECT OF TEST: human P2X3 receptor (Homo sapiens (Human), UniProt P56373)
Sequence (P56373 whole entry): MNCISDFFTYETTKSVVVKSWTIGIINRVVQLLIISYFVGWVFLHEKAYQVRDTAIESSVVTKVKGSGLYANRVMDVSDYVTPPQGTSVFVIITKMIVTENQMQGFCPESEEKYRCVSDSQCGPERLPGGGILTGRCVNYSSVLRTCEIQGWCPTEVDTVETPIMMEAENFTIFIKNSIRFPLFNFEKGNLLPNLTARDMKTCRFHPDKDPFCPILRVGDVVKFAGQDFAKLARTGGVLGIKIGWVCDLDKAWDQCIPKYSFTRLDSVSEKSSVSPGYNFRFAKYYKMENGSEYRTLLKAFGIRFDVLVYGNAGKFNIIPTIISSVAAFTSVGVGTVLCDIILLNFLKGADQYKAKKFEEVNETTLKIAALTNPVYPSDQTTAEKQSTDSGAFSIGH
TEST: Evaluation of human P2X3 receptor inhibitory activity (Test Example 1)
APPLIED CONDITIONS: C6BU-1 cell transfected with human P2X3 receptor gene, FLIPR 384
One number for each entry, in nM.

{"COMPOUND": "CO[C@H](Cn1c(=O)[nH]/c(=N\\c2ccc(Oc3ccccn3)cc2)n(Cc2ccc(Cl)cc2)c1=O)C(=O)O [Compound I-200]", "SUBJECT OF TEST": "human P2X3 receptor (Homo sapiens (Human), UniProt P56373)", "UNITS TEXT": "nM", "OBSERVED VALUE": 42}
{"COMPOUND": "Cc1ccc(Cn2c(=O)n([C@@H](C)[C@@H](C)C(=O)O)c(=O)[nH]/c2=N\\c2ccc(Oc3cccc(F)n3)cc2)cc1 [Compound I-106]", "SUBJECT OF TEST": "human P2X3 receptor (Homo sapiens (Human), UniProt P56373)", "UNITS TEXT": "nM", "OBSERVED VALUE": 6}

Field: IC50. Fill in for each record below.
1. C[C@@H](C(=O)O)[C@H](C)n1c(=O)[nH]/c(=N\c2ccc(Oc3cnc(Cl)cn3)cc2)n(Cc2ccc(Cl)cc2)c1=O [Compound R-162]
2. C[C@@H](C(=O)O)[C@H](C)n1c(=O)[nH]/c(=N\c2ccc(Oc3cncc(F)c3)c(F)c2)n(Cc2ccc(Cl)cc2)c1=O [Compound R-189]
3. COC(=O)[C@@H](C)Cn1c(=O)[nH]/c(=N\c2ccc(Oc3ccccn3)cc2)n(Cc2ccc(C(F)F)cc2)c1=O [Compound I-194]

6
8
12

IC50 lookup needed for COC(=O)[C@H](C)[C@H](C)n1c(=O)[nH]/c(=N\c2ccc(Oc3ccc(OC(F)F)cn3)cc2)n(Cc2ccc(Cl)cc2)c1=O [Compound I-071] , thanks. 38

====

Kindly supply the reported IC50 values for the records listed here.
SUBJECT OF TEST: UniProtKB P56373
TEST: Evaluation of human P2X3 receptor inhibitory activity (Test Example 1)
Format: cell-based
APPLIED CONDITIONS: C6BU-1 cell transfected with human P2X3 receptor gene, FLIPR 384
Give bare numbers, in nM.

Field: IC50. Fill in for each record below.
1. Cc1ccc(Oc2ccc(/N=c3\[nH]c(=O)n(CC(C)(C)C(=O)O)c(=O)n3Cc3ccc(Cl)cc3)cc2F)nn1
2. CC(C)(Cn1c(=O)[nH]/c(=N\c2ccc(Oc3ncccc3F)cc2)n(Cc2ccc(Cl)cc2)c1=O)C(=O)O
3. C[C@@H](Cn1c(=O)[nH]/c(=N\c2ccc(Oc3cccnc3)cc2)n(Cc2ccc(Cl)cc2)c1=O)C(=O)O
4. COC(=O)[C@@H](C)Cn1c(=O)[nH]/c(=N\c2ccc(Oc3cc(F)nc(F)c3)cc2)n(Cc2ccc(Cl)cc2)c1=O
5. C[C@@H](Cn1c(=O)[nH]/c(=N\c2ccc(Oc3ccccn3)cc2)n(Cc2ccc(Cl)s2)c1=O)C(=O)O
6. COC(=O)[C@@H](C)Cn1c(=O)[nH]/c(=N\c2ccc(Oc3ccc(C(F)(F)F)cn3)cc2)n(Cc2ccc(C)cc2)c1=O
7. O=c1[nH]/c(=N\c2ccc(Oc3ccccn3)cc2)n(Cc2ccc(Cl)cc2)c(=O)n1[C@H]1C[C@H](C(=O)O)C1

1: 7; 2: 7; 3: 9; 4: 7; 5: 5; 6: 9; 7: 6

====

SUBJECT OF TEST: human P2X3 receptor (Homo sapiens (Human))
TEST: Evaluation of human P2X3 receptor inhibitory activity (Test Example 1)
APPLIED CONDITIONS: C6BU-1 cell transfected with human P2X3 receptor gene, FLIPR 384
Kindly supply the reported pIC50 values for the records listed here.
One number for each entry, as −log10 of the molar value.

Study these solved cases before continuing.
{"COMPOUND": "Cc1cc(/N=c2\\[nH]c(=O)n(C[C@H](C)C(=O)O)c(=O)n2Cc2ccc(Cl)cc2)ccc1Oc1cnccn1", "SUBJECT OF TEST": "human P2X3 receptor (Homo sapiens (Human))", "pIC50": 8.05}
{"COMPOUND": "CCOC(=O)CCCn1c(=O)[nH]/c(=N\\c2ccc(Oc3ncccc3F)cc2)n(Cc2ccc(C)cc2)c1=O", "SUBJECT OF TEST": "human P2X3 receptor (Homo sapiens (Human))", "pIC50": 8.22}
{"COMPOUND": "COC(=O)[C@@H](C)Cn1c(=O)[nH]/c(=N\\c2ccc(Oc3ccccn3)c(F)c2)n(Cc2ccc(C)cc2)c1=O", "SUBJECT OF TEST": "human P2X3 receptor (Homo sapiens (Human))", "pIC50": 8.40}
{"COMPOUND": "COC(=O)[C@@H](C)Cn1c(=O)[nH]/c(=N\\c2ccc(Oc3ccccn3)c(F)c2)n(Cc2ccc(Cl)cc2)c1=O", "SUBJECT OF TEST": "human P2X3 receptor (Homo sapiens (Human))", "pIC50": 7.92}
{"COMPOUND": "Cc1ccc(Cn2c(=O)n(CCCC(=O)O)c(=O)[nH]/c2=N\\c2ccc(Oc3ccc(F)cn3)cc2)cc1", "SUBJECT OF TEST": "human P2X3 receptor (Homo sapiens (Human))", "pIC50": 7.82}

Field: pIC50. Fill in for each record below.
1. COC(=O)C(C)(C)Cn1c(=O)[nH]/c(=N\c2ccc(Oc3cnccn3)c(C)c2)n(Cc2ccc(Cl)cc2)c1=O
2. C[C@@H](C(=O)O)[C@H](C)n1c(=O)[nH]/c(=N\c2ccc(Oc3cnccn3)c(F)c2)n(Cc2ccc(Cl)cc2)c1=O
3. COC(=O)C(C)(C)Cn1c(=O)[nH]/c(=N\c2ccc(Oc3ccc(OC(F)F)cn3)cc2)n(Cc2ccc(C)cc2)c1=O
4. C[C@@H](Cn1c(=O)[nH]/c(=N\c2ccc(Oc3ccc4nccn4n3)cc2)n(Cc2ccc(Cl)cc2)c1=O)C(=O)O
5. C[C@@H](Cn1c(=O)[nH]/c(=N\c2ccc(Oc3cc(C(F)(F)F)ccn3)cc2)n(Cc2ccc(Cl)cc2)c1=O)C(=O)O
6. COC(=O)[C@@H](C)[C@@H](C)n1c(=O)[nH]/c(=N\c2ccc(Oc3ccccn3)cc2)n(Cc2ccc(Cl)cc2)c1=O

1. 8.15
2. 8.15
3. 8.10
4. 8.30
5. 7.82
6. 8.00

====

SUBJECT OF TEST: human P2X3 receptor (Homo sapiens (Human), UniProt P56373)
TEST: Evaluation of human P2X3 receptor inhibitory activity (Test Example 1)
Assay type: cell-based
APPLIED CONDITIONS: C6BU-1 cell transfected with human P2X3 receptor gene, FLIPR 384
Text: […]
Kindly supply the reported pIC50 values for the records listed here.
Numbers only, as −log10 of the molar value.

{"COMPOUND": "COC(=O)C(C)(C)Cn1c(=O)[nH]/c(=N\\c2ccc(Oc3ncc(C)s3)cc2)n(Cc2ccc(C)cc2)c1=O", "OBSERVED VALUE": 8.22}
{"COMPOUND": "COC(=O)[C@H](C)[C@H](C)n1c(=O)[nH]/c(=N\\c2ccc(Oc3ccc(C)cn3)cc2)n(Cc2ccc(C)cc2)c1=O", "OBSERVED VALUE": 8.22}
{"COMPOUND": "C[C@@H](Cn1c(=O)[nH]/c(=N\\c2ccc(Oc3ncccc3F)cc2)n(Cc2ccc(C(F)F)cc2)c1=O)C(=O)O", "OBSERVED VALUE": 7.68}

Field: pIC50. Fill in for each record below.
1. O=C(O)CCn1c(=O)[nH]/c(=N\c2ccc(Oc3ncccc3F)cc2)n(Cc2ccc(CF)cc2)c1=O
2. C[C@@H](C(=O)O)[C@H](C)n1c(=O)[nH]/c(=N\c2ccc(Oc3cc(Cl)ccn3)cc2)n(Cc2ccc(Cl)cc2)c1=O
3. C[C@@H](Cn1c(=O)[nH]/c(=N\c2ccc(Oc3nc4ccccc4o3)cc2)n(Cc2ccc(Cl)cc2)c1=O)C(=O)O
4. COC(=O)[C@@H](C)Cn1c(=O)[nH]/c(=N\c2ccc(Oc3cnc(C(F)(F)F)cn3)cc2)n(Cc2ccc(Cl)cc2)c1=O

7.38
8.00
8.30
8.10

Field: pIC50. Fill in for each record below.
1. COC(=O)CCn1c(=O)[nH]/c(=N\c2ccc(Oc3ccccn3)c(F)c2)n(Cc2ccc(Cl)cc2)c1=O
2. CC(C)(Cn1c(=O)[nH]/c(=N\c2ccc(Oc3ccccn3)c(F)c2)n(Cc2ccc(Cl)cc2)c1=O)C(=O)O
3. C[C@@H](Cn1c(=O)[nH]/c(=N\c2ccc(N3CCCCC3)c(F)c2)n(Cc2ccc(Cl)cc2)c1=O)C(=O)O

8.40
7.96
7.48

====

SUBJECT OF TEST: human P2X3 receptor (Homo sapiens (Human), UniProt P56373)
TEST: Evaluation of human P2X3 receptor inhibitory activity (Test Example 1)
APPLIED CONDITIONS: C6BU-1 cell transfected with human P2X3 receptor gene, FLIPR 384
Label 1 (yes) when IC50 is strictly below 10 nM; otherwise label 0 (no).

Completed entries (count: 5):
{"COMPOUND": "C[C@@H](Cn1c(=O)[nH]/c(=N\\c2ccc(Oc3nc(C(F)(F)F)ns3)cc2)n(Cc2ccc(Cl)cc2)c1=O)C(=O)O [Compound R-145]", "CLASS NAME": "0 (no)"}
{"COMPOUND": "CC(C)(Cn1c(=O)[nH]/c(=N\\c2ccc(Oc3ncccn3)cc2)n(Cc2ccc(Cl)cc2)c1=O)C(=O)O [Compound R-060]", "CLASS NAME": "0 (no)"}
{"COMPOUND": "C[C@@H](Cn1c(=O)[nH]/c(=N\\c2ccc(Oc3cncc(F)c3)c(F)c2)n(Cc2ccc(Cl)cc2)c1=O)C(=O)O [Compound R-117]", "CLASS NAME": "1 (yes)"}
{"COMPOUND": "Cc1ccc(Cn2c(=O)n([C@H]3C[C@H](C(=O)O)C3)c(=O)[nH]/c2=N\\c2ccc(Oc3ccc(F)cn3)cc2)cc1 [Compound I-182]", "CLASS NAME": "1 (yes)"}
{"COMPOUND": "COc1ccc(Oc2ccc(/N=c3\\[nH]c(=O)n(CC(C)(C)C(=O)O)c(=O)n3Cc3ccc(Cl)cc3)cc2)nc1 [Compound I-093]", "CLASS NAME": "0 (no)"}

Take the compound O=C(O)C1(Cn2c(=O)[nH]/c(=N\c3ccc(Oc4ccc(F)cn4)cc3)n(Cc3ccc(Cl)cc3)c2=O)COC1 [Compound I-059] and say whether its IC50 is less than 10 nM. 0 (no)
